# Subject of test: porcine pancreatic α-amylase (Sus scrofa)
# Sequence (P00690 16-511): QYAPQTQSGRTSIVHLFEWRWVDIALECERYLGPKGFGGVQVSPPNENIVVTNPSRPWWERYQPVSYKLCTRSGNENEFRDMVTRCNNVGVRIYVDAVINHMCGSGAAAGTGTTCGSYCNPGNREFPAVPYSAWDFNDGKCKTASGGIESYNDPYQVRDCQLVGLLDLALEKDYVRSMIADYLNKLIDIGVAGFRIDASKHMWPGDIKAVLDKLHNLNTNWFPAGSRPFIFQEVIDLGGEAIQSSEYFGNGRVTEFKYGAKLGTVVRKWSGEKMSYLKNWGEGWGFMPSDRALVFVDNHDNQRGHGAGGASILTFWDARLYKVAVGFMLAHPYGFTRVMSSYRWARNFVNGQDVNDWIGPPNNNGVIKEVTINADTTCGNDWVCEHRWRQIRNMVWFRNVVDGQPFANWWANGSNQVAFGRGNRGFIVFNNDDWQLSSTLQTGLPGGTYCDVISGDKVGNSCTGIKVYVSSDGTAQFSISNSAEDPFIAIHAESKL
Observed property: IC50 (µM)

test_smiles=CC(C)=CCc1c(O)cc2oc3c(/C=C\C(C)(C)O)c(O)c(O)c(CC=C(C)C)c3c(=O)c2c1O experimental_result=16.1
